Origin of the recorded values: paper PMC11357990

- ASSAYED_SYSTEM: PI3Kγ (Homo sapiens, UniProt P48736)
- ASSAY_NAME: X-ray cocrystal structure ([…] Å); purified kinase assay IC50
- Assay type: biochemical
- Design: gene PIK3CG; S144-A1102
QUANTITY: IC50 (nM)
One number for each entry, in nM.

[Q] Respond only with IC50 recorded for `C[C@@H](Nc1ncnc2ccc(-c3cnc(Cl)c(NS(C)(=O)=O)c3)cc12)c1ccccc1`
[A] 8.3

----------
- ASSAYED_SYSTEM: PI3Kα (Homo sapiens)
- ASSAY_NAME: biochemical kinase assay at ATP Km apparent
- Design: gene PIK3CA
QUANTITY: pIC50
One number for each entry, as −log10 of the molar value.

[Q] For PI3Kα (Homo sapiens), give the measured pIC50 of the entry `C[C@@H](Nc1ncnc2ccc(-c3cnc(Cl)c(NS(C)(=O)=O)c3)cc12)c1ccccc1`
[A] 8.19

----------
- ASSAYED_SYSTEM: PI3Kδ (Homo sapiens, UniProt O00329)
- Construct: gene PIK3CD
- Sequence (O00329 whole entry): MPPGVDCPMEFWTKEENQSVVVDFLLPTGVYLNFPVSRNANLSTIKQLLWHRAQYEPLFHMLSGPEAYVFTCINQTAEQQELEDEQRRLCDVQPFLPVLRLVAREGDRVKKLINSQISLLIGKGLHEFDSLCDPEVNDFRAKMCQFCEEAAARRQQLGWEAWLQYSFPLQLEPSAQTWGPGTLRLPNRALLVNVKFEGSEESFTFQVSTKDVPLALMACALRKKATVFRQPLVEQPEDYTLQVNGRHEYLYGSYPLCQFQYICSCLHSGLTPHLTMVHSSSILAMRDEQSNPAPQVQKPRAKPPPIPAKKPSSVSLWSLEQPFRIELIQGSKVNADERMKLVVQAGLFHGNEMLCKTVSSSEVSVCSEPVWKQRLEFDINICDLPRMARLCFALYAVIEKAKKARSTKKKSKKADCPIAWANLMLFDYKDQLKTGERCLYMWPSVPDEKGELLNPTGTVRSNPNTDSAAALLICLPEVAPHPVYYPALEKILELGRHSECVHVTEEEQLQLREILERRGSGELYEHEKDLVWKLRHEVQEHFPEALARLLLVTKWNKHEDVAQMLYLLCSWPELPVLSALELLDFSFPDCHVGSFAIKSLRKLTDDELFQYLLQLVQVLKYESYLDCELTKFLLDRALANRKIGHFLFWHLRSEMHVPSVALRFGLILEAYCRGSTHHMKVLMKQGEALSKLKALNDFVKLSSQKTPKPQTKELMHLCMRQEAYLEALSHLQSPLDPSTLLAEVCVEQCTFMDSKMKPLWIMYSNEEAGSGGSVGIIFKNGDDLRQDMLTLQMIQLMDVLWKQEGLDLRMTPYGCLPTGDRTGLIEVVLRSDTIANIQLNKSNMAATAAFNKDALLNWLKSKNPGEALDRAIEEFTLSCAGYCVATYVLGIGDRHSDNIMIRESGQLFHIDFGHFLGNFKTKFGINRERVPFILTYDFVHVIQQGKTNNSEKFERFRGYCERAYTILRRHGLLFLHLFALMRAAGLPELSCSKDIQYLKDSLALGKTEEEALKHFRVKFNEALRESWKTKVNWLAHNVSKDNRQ
- ASSAY_NAME: biochemical kinase assay at ATP Km apparent
QUANTITY: IC50

[Q] Respond only with IC50 recorded for `C[C@@H](Nc1ncnc2ccc(-c3cnc(Cl)c(NS(C)(=O)=O)c3)cc12)c1ccccc1`
[A] 1.1 nM

----------
- ASSAYED_SYSTEM: Potassium Channel hERG (human)- [3H] Dofetilide (Homo sapiens)
- Construct: gene KCNH2
- Sequence (Q12809 whole entry): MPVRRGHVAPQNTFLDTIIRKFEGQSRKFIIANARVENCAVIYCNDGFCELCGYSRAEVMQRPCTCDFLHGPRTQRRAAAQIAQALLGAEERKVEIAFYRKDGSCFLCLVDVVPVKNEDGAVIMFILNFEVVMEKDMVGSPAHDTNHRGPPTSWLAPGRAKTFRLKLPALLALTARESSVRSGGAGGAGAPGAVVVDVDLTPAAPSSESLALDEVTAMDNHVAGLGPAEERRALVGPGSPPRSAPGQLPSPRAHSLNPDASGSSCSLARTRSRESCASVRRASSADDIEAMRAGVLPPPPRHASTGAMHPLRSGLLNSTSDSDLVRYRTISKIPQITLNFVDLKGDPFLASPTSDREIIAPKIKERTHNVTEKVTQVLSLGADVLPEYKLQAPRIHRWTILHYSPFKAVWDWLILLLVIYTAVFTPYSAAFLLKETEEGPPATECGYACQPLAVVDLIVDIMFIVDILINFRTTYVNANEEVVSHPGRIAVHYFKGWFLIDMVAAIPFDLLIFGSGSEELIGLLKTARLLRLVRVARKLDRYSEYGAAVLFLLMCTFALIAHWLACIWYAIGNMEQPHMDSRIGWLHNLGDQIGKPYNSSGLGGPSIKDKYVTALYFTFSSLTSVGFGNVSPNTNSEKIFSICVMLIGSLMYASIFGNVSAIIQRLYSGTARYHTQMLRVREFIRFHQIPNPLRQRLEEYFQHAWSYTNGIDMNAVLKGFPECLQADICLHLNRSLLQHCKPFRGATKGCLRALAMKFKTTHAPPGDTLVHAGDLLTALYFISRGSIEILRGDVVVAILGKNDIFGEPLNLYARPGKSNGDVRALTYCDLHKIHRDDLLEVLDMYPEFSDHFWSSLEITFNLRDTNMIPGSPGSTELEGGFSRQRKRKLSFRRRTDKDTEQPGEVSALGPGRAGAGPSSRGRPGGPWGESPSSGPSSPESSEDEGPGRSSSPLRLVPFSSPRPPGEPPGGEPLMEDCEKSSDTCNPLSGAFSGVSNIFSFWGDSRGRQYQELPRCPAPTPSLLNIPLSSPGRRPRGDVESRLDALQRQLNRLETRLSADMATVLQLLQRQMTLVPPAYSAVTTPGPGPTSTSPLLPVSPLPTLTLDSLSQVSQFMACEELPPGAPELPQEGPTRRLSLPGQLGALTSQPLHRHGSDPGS
- ASSAY_NAME: in vitro
QUANTITY: inhibition at 10 µM (%)
Numbers only, in %.

[Q] Respond only with inhibition at 10 µM recorded for `C[C@@H](Nc1ncnc2ccc(-c3cnc(Cl)c(NS(C)(=O)=O)c3)cc12)c1ccccc1`
[A] 51

----------
- ASSAYED_SYSTEM: PI3Kα (Homo sapiens)
- ASSAY_NAME: biochemical
- Design: gene PIK3CA; Km ATP; Purified kinase inhibition, Z'-LYTE (HER, mTOR, DNA-PK) or Adapta (PI3K), ATP at Km apparent
QUANTITY: IC50

[Q] Respond only with IC50 recorded for CCN1CCN(Cc2ccc(-c3cc4c(N[C@H](C)c5ccccc5)ncnc4[nH]3)cc2)CC1 [NVP-AEE788]
[A] > 10 µM

----------
- ASSAYED_SYSTEM: PI3Kγ (Homo sapiens)
- ASSAY_NAME: biochemical
- Set-up: gene PIK3CG; Km ATP; Purified kinase inhibition, Z'-LYTE (HER, mTOR, DNA-PK) or Adapta (PI3K), ATP at Km apparent
- Sequence (P48736 whole entry): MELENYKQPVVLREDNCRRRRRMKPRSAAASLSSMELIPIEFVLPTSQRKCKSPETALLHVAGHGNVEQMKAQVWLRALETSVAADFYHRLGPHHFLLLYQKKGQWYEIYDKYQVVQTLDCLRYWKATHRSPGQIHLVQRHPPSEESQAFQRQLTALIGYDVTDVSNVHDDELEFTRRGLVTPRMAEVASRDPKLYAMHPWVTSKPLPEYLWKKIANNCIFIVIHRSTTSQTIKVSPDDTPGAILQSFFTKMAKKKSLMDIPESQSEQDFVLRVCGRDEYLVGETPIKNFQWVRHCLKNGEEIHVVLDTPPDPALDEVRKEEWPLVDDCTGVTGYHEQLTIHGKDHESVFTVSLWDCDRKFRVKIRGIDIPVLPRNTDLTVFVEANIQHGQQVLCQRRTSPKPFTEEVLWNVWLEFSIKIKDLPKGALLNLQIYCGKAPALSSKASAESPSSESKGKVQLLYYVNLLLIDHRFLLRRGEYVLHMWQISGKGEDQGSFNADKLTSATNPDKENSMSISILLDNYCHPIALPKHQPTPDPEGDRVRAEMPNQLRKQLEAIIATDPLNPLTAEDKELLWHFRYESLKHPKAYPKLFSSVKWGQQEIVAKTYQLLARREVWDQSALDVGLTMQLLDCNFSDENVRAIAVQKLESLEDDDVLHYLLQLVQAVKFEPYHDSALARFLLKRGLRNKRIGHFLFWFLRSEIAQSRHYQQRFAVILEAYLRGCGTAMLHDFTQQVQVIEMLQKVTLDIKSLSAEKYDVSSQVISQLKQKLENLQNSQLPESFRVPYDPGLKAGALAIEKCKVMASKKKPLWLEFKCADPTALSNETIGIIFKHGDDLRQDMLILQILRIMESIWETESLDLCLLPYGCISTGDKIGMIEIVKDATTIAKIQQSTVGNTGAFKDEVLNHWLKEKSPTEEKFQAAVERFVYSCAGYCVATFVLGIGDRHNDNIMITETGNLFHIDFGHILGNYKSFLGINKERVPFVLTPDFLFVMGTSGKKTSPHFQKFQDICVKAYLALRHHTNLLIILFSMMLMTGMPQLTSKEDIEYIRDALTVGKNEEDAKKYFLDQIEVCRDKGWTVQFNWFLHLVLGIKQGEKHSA
QUANTITY: IC50

[Q] Respond only with IC50 recorded for CCN1CCN(Cc2ccc(-c3cc4c(N[C@H](C)c5ccccc5)ncnc4[nH]3)cc2)CC1 [NVP-AEE788]
[A] > 10 µM

----------
- ASSAYED_SYSTEM: UniProt P42338
- Sequence (P42338 whole entry): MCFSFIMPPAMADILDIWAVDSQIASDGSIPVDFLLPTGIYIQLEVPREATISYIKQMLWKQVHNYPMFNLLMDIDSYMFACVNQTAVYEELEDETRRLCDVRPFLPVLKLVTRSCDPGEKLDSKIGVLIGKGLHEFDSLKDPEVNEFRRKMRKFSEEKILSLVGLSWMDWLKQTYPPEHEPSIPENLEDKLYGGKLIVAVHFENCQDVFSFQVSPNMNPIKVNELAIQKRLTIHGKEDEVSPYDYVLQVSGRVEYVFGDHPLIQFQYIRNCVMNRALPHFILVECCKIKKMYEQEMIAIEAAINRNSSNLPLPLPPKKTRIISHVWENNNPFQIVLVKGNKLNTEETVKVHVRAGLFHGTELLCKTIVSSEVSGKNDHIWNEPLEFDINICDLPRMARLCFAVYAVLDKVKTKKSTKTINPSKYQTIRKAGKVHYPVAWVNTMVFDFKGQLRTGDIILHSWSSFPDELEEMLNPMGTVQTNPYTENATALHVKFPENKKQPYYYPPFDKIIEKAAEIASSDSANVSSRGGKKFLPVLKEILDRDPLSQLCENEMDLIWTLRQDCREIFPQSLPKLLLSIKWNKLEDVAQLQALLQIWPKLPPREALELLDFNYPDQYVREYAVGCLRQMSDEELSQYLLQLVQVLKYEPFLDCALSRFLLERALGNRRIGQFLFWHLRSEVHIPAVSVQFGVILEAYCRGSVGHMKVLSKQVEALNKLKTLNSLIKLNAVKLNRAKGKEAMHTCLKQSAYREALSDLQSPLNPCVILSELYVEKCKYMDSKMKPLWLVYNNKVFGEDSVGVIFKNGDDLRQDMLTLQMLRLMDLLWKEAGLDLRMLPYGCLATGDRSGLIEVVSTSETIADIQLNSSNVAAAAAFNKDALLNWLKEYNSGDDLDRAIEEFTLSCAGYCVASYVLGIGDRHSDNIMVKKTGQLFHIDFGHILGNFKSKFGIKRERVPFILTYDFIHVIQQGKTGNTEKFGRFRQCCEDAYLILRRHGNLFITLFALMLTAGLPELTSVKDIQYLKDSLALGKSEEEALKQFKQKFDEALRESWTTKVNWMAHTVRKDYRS
- Sequence (P27986 whole entry partner): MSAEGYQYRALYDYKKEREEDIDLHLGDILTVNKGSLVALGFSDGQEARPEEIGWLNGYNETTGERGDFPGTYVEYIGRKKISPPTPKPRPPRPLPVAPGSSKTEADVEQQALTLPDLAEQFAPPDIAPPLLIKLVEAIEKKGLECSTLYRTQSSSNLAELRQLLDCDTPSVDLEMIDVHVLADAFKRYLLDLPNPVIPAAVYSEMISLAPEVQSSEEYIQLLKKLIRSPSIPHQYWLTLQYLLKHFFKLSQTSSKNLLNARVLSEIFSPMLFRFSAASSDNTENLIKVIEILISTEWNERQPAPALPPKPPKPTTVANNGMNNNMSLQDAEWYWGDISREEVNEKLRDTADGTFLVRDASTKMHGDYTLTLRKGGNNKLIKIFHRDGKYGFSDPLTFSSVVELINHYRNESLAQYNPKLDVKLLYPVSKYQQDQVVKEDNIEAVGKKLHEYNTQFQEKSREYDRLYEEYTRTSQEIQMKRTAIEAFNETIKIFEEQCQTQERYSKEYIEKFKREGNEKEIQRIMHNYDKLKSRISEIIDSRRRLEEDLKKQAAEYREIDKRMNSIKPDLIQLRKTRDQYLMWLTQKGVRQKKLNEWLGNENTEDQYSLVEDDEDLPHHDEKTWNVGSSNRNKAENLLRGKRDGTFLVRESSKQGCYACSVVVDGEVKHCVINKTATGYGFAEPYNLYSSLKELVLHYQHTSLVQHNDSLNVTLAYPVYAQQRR
QUANTITY: pIC50
Answers are plain numbers, as −log10 of the molar value.

[Q] For UniProt P42338, give the measured pIC50 of the entry C[C@@H](Nc1ncnc2ccc(-c3cnc(Cl)c(NS(C)(=O)=O)c3)cc12)c1ccccc1 [MTX-531]
[A] 6.63

----------
- ASSAYED_SYSTEM: mTOR (Homo sapiens, UniProt P42345)
I'd appreciate it if you could supply IC50 values for the items below.
Give bare numbers, in nM.

compound="Cc1nc(NC(=O)N2CCC[C@H]2C(N)=O)sc1-c1ccnc(C(C)(C)C(F)(F)F)c1 [Alpelisib]" quantity=IC50 reading=2940
compound="C[C@@H](Nc1ncnc2ccc(-c3cnc(Cl)c(NS(C)(=O)=O)c3)cc12)c1ccccc1 [MTX-531]" quantity=IC50 reading=105

[Q] Respond only with IC50 recorded for COc1c(OCCCN2CCOCC2)ccc2c1N=C(NC(=O)c1cnc(N)nc1)N1CCN=C21 [Copanlisib]
[A] 18.8
